Entries and their pKd
molecular target: human CD137 (human, UniProt Q07011 24-186); experiment: SPR Biacore T200, IgG captured on protein A, 25 C;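 note: antigens diluted in ACES running buffer at pH 7.4 were flowed over antibodies held on a CM3 chip bearing amine-coupled protein A, with buffer alone serving as blank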
Sequence (Q07011 24-186 limits assumed): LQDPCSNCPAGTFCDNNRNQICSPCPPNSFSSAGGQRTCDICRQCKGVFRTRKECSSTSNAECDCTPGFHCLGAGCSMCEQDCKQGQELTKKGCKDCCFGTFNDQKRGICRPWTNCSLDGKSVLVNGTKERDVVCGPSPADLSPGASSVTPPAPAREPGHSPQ
pKd is a log-scale quantity: -log10 of the concentration expressed in molar.

| binder | endpoint result |
| --- | --- |
| dBBDu186/L100 (antibody, V domains shown, IgG format; constant regions not specified) VH: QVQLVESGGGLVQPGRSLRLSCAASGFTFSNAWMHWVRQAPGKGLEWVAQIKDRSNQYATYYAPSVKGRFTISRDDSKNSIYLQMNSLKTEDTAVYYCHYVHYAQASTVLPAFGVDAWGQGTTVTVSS VL: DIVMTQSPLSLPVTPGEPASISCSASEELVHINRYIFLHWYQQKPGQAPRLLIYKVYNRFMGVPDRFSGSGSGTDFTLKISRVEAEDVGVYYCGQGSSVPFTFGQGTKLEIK | 5.72 |

// switching to the query binder
Which pKd value is on record for dBBDu189/L119 (antibody, V domains shown, IgG format; constant regions not specified) VH: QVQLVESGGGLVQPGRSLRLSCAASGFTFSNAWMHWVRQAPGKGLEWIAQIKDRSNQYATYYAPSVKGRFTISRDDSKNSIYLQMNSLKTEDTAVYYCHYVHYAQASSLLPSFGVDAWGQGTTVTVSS VL: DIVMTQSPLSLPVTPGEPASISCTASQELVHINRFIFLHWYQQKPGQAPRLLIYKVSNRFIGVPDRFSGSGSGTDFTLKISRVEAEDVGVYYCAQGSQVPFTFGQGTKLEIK ?
5.57
